protocol_details: in vivo
conditions_used: rat, plasma, po
property: AUC (ng·h/mL)

Q: Quick one: AUC for CCc1nc(CN(C)C(=O)NC(C(=O)N[C@@H](Cc2ccccc2)C[C@H](O)[C@H](Cc2ccccc2)NC(=O)OCc2cncs2)C(C)C)cs1 (stereo partly drawn) ?
Result: 14200

Q: Quick one: AUC for CC(C)C(NC(=O)OCc1csc(N2CCOCC2)n1)C(=O)N[C@@H](Cc1ccccc1)C[C@H](O)[C@H](Cc1ccccc1)NC(=O)OCc1cncs1 (stereo partly drawn) ?
Result: 40

Q: Quick one: AUC for CC(C)c1nc(CN(C)C(=O)NC(C(=O)N[C@@H](Cc2ccccc2)C[C@H](O)[C@H](Cc2ccccc2)NC(=O)OCc2cnco2)C(C)C)cs1 (stereo partly drawn) ?
Result: 2650

Q: Quick one: AUC for Cc1ccc(COC(=O)NC(C(=O)N[C@@H](Cc2ccccc2)C[C@H](O)[C@H](Cc2ccccc2)NC(=O)OCc2cccnc2)C(C)C)cn1 (stereo partly drawn) ?
Result: 270

Q: Quick one: AUC for CC(C)c1nc(CN(C)C(=O)NC(C(=O)N[C@@H](Cc2ccccc2)C[C@H](O)[C@H](Cc2ccccc2)NC(=O)OCc2cccnc2)C(C)C)cs1 (stereo partly drawn) ?
Result: 530

(1) CCc1cccc(COC(=O)NC(C(=O)N[C@@H](Cc2ccccc2)[C@@H](O)C[C@H](Cc2ccccc2)NC(=O)OCc2cccnc2)C(C)C)n1 (stereo partly drawn)
(2) CC(C)C(NC(=O)N(C)Cc1ccccn1)C(=O)N[C@@H](Cc1ccccc1)[C@@H](O)C[C@H](Cc1ccccc1)NC(=O)OCc1ccoc1 (stereo partly drawn)
Q: Between these two entries, 1 and 2 , state which has the higher AUC. Output the label that corresponds to your choice.
Result: 1
(1: 810 ng·h/mL, 2: 500 ng·h/mL)

(I) COCc1nc(CN(C)C(=O)NC(C(=O)N[C@@H](Cc2ccccc2)[C@@H](O)C[C@H](Cc2ccccc2)NC(=O)OCc2cccnc2)C(C)C)cs1 (stereo partly drawn)
(II) CC(C)C(NC(=O)OCc1cnccn1)C(=O)N[C@@H](Cc1ccccc1)C[C@H](O)[C@H](Cc1ccccc1)NC(=O)OCc1cccnc1 (stereo partly drawn)
Q: Lower value for measured AUC? Options: I , II Output the label that corresponds to your choice.
Result: II

(I) Cc1cccc(CN(C)C(=O)NC(C(=O)N[C@@H](Cc2ccccc2)C[C@H](O)[C@H](Cc2ccccc2)NC(=O)OCc2cccnc2)C(C)C)n1 (stereo partly drawn)
(II) Cc1cncc(COC(=O)NC(C(=O)N[C@@H](Cc2ccccc2)[C@@H](O)C[C@H](Cc2ccccc2)NC(=O)OCc2cccnc2)C(C)C)c1 (stereo partly drawn)
Q: Between these two entries, I and II , state which has the higher AUC. Output the label that corresponds to your choice.
Result: I

* * *

protocol_details: in vivo
conditions_used: rat, plasma, iv
property: half-life (h)

Q: Quick one: half-life for CC(C)C(NC(=O)N(C)Cc1ccccn1)C(=O)N[C@@H](Cc1ccccc1)C[C@H](O)[C@H](Cc1ccccc1)NC(=O)OCc1cccnc1 (stereo partly drawn) ?
Result: 1.22

(a) Cc1nc(CN(C)C(=O)NC(C(=O)N[C@@H](Cc2ccccc2)[C@@H](O)C[C@H](Cc2ccccc2)NC(=O)OCc2cccnc2)C(C)C)cs1 (stereo partly drawn)
(b) CC(C)c1nc(CN(C)C(=O)NC(C(=O)N[C@@H](Cc2ccccc2)[C@@H](O)C[C@H](Cc2ccccc2)NC(=O)OCc2cccnc2)C(C)C)cs1 (stereo partly drawn)
Q: Between these two entries, a and b , state which has the higher half-life. Output the label that corresponds to your choice.
Result: a
(a: 1.49 h, b: 0.75 h)

Entry source: ChEMBL document CHEMBL1131475
